# Test system: MDA-N
# EXPERIMENT SUMMARY: NCI tumour cell line growth inhibition, 48 h
Calls of active or inactive are those of the source. Rule as the data show it: active = GI50 up to about 1.1 µM and inactive = higher.
OBSERVED PROPERTY: GI50

- CC(Oc1ccc(Cl)cc1Cl)C(=O)NN1C(=O)CSC1c1ccccc1 (stereo unspecified): > 100 µM (inactive)
- OC1(C(F)(F)F)OCCN=C1C(F)(F)F (stereo unspecified): > 100 µM (inactive)
- COc1cc(/C=C/C(=O)OCCc2ccccc2)ccc1O: 19.1 µM (inactive)
- O=[N+]([O-])c1cc([As](Br)c2ccc(O)c([N+](=O)[O-])c2)ccc1O: 1.53 µM (inactive)
- COC1=CC(=O)c2c(ccc3ncnc(N)c23)C1=O: 0.288 µM (active)
- O=c1c2c([N+](=O)[O-])cccc2nc2[nH]c3ccccc3n12: > 75 µM (inactive)
- COC(=O)[C@H](Cc1ccccc1)NP(=O)(OCCC#N)OCC1OC(n2cc(C)c(=O)[nH]c2=O)CC1N=[N+]=[N-] (stereo partly specified): > 100 µM (inactive)
- COc1ccc(C(=C2C(=O)OC(=O)C2=C(C)C)c2ccc(OC)cc2)cc1: > 100 µM (inactive)
- Cn1c(-c2ccco2)ccc1-c1ccc(C=O)o1: 35.7 µM (inactive)
- NC(=S)N/N=C\c1nccc2ccccc12: 0.429 µM (active)
- Cc1cc2c(C)cc(=O)[nH]c2cc1N: > 100 µM (inactive)
